# credit: the OPERA property sets (Mansouri et al. 2018)

observationType: logP
Field format: numeric only.

Solved entries (count: 10):
molecule | observed
COc1ccc(C(=O)N(C)C)cc1 | 0.96
CN1C(=O)c2ccccc2C1=O | 1.31
CC(=O)Oc1ccc(C)cc1 | 2.11
OCc1ccccn1 | 0.06
O=[N+]([O-])c1ccc2ncccc2c1 | 1.84
Cn1c([N+](=O)[O-])cnc1-c1ccc(C(N)=O)cc1 | 0.98
NCCCc1ccccn1 | 0.49
CCCCCl | 2.64
CCOC(=O)NCCOc1ccc(Oc2ccccc2)cc1 | 4.3
O=C1CCC(c2ccccc2)(C2CCN(Cc3ccccc3)CC2)C(=O)N1 (stereo unspecified) | 3.55

Exam item: State its logP for this molecule: CC(=O)c1ccc(C(O)C(CO)NC(=O)C(Cl)Cl)cc1 (stereo unspecified)
Marked response: 0.57

Exam item: State its logP for this molecule: CCCCCNc1nc(NC(C)C)nc(SC(F)F)n1
Marked response: 5.2

Exam item: State its logP for this molecule: N#Cc1ccco1
Marked response: 0.96
